Sourced from patent US20210292423A1

# maps each entry to its % antibody positive transfected cells
- Test Target: T1, human CD3ε and CD3δ co-expressed on HEK293F cells (human, UniProt P07766 23-207; P04234 22-171)
- T1 construct: also called huCD3ε/δ (transfected cells); huCD3e + huCD3d
- T1 sequence (P07766 23-207 limits assumed, stated change not applied, chain 1 of 2): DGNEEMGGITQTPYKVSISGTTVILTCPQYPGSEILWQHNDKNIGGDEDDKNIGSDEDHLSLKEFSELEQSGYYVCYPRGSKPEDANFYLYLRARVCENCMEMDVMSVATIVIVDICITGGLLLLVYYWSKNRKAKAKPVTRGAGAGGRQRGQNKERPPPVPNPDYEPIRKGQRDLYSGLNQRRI
- T1 sequence (P04234 22-171 limits assumed, stated change not applied, chain 2 of 2): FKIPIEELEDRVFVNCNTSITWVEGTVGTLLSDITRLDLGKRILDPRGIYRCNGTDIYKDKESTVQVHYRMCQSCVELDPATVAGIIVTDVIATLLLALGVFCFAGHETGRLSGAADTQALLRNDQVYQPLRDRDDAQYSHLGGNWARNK
- Assay Method Text: flow cytometry, transfected HEK293F
# number only, unit % dropped from output

Binder: 20E5-F10 Fab (Fab, V domains shown, also called 20E5-F10-huFab) VH: EVQLVETGENLVQPGKSLRLTCATSGFSFSNAWMHWIRQSPEKQLEWVAQIKDKSNNYATYYAESVNGRFTISRDDSKSSIYLHMDNLKEEDSAIYYCRYVHYGVRFFYTMDVWGQGTSVTVSS VL: DVVMTQTPVSLSVSLGDQVSISCRPSQSLVHNNGNTYLSWYLQKPGQSPHPLIYKVSNRFSGISDRFSGSGSGTDFTLKISRVEPDDLGVYYCGQGTQYPFTFGSGTKLEIK
U: %
Measured Result: 95.3
//
Binder: 13H2-C2 Fab (Fab, V domains shown, also called 13H2-C3) VH: EEELVETGGSLVQPGKSLKLTCATSGFTFSNAWMHWVRQSPDKQLEWVAQIKAKSNNYATYYAESVKGRFTISRDDSKSSVYLQMNNLKEEDTAIYYCRYVHYGLAPMDAWGQGTSVTVSS VL: DVVMTQTPVSLSVSLGGQVSISCRSSQSLVHNNGNTYLSWYLQKAGQSPQLLIYKVSNRFSGISDRFSGSGSGTDFILKISRVEPDDLGVFYCGQGTQYPFTFGAGTKLELK
U: %
Measured Result: 93

# ---- query binder ----
Req: Entry 11F9-F8 Fab (Fab, V domains shown, also called 11F9-F8-huFab) VH: EVQLVETGGTLVQPGKSLKLTCATSGFTFSNAWMHWVRQSPEKQLEWVAQIKAKSNNYATYYAESVKGRFTISRDDSKTSVYLQLNSLREEDTAIYYCRGTQYGYNPFDYWGQGVMVTVSS VL: DVVLTQTPVSLSVSLGGQVSISCRSSQSLVHNNGNTYLSWSLQKPGQSPQVLIYKVSNRFSGISNRFSGSGSGTDFTLKISRVEPDDLGVYYCGQGAHYPFTFGSGTKLEIK needs its % antibody positive transfected cells filled in; supply it.
Resp: 96
